Reported Kd is given for each of the following binders.
# targetDesc: T1, recombinant human αvβ3 integrin extracellular domains (human, UniProt P06756 1-992; P05106 1-718, Secreted glycoprotein heterodimer. It is biotinylated on the omitted Avitag, and an interchain disulfide sits in the omitted coiled-coils.)
# T1 construct: Soluble heterodimer co-expressed in Expi293 cells; also called hαvβ3; not shown: Alpha chain: acidic coiled-coil with cysteine and GG-Avitag; Beta chain: basic coiled-coil with cysteine and GG-Avitag
# assaySummary: ForteBio Octet Red (BLI)
Output spec: scalar in nM, unitless text.

• Ab-33 (antibody, V domains shown) VH: EVQLVQSGAEVKKPGSSVKVSCKASGGTFSNYAISWVRQAPGQGLEWMGGIIPIFGTANYAQKFQGRVTITADESTSTAYMELSSLRSEDTAVYYCARAPRSARGDMYYYYYGMDVWGQGTTVTVSS VL: DIQMTQSPSTLSASVGDRVTITCRASQSIGSWLAWYQQKPGKAPKLLIYKASSLESGVPSRFSGSGSGTEFTLTISSLQPDDFATYYCQQYGRYPWTFGGGTKVEIK = 5.07

Request: Entry under review: Ab-30 (antibody, V domains shown) VH: EVQLQESGPGLVKPSETLSLTCAVSGYSISSGYYWGWIRQPPGKGLEWIGSIYHSGNTYYNPSLKSRVTISVDTSKNQFSLKLSSVTAADTAVYYCARVPRYSRGDAYYYYGMDVWGQGTTVTVSS VL: DIQMTQSPSTLSASVGDRVTITCRASQSISSWLAWYQQKPGKAPKLLIYKASSLESGVPSRFSGSGSGTEFTLTISSLQPDDFATYYCQQVKIYPPYTFGGGTKVEIK . Reported Kd?
Result: 5.29

Request: Entry under review: Ab-29 (antibody, V domains shown) VH: ELQLQESGPGLVKPSETLSLTCTVSGGSISSNSYYWGWIRQPPGKGLEWIGSIYYSGSTYYNPSLKSRVTISVDTSKNQFSLKLSSVTAADTAVYYCARVRRVAGRGDSYYYYYGMDVWGQGTTVTVSS VL: DIQMTQSPSSVSASVGDRVTITCRASQGISRWLAWYQQKPGKAPKLLIYAASSLQSGVPSRFSGSGSGTDFTLTISSLQPEDFATYYCQQAISHPWTFGGGTKVEIK . Reported Kd?
Result: 6.58

Request: Entry under review: Ab-32 (antibody, V domains shown) VH: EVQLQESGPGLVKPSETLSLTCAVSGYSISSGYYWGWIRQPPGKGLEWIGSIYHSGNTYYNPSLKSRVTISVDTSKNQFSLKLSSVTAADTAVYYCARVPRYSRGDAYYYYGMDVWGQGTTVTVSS VL: EIVLTQSPGTLSLSPGERATLSCRASQSVRSSYLAWYQQKPGQAPRLLIYGASSRATGIPDRFSGSGSGTDFTLTISRLEPEDFAVYYCQQAGLVFTFGGGTKVEIK . Reported Kd?
Result: 6.14

Request: Entry under review: Ab-31 (antibody, V domains shown) VH: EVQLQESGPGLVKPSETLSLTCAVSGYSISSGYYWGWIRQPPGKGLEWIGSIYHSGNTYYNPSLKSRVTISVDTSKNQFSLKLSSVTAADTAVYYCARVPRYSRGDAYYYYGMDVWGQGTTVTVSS VL: DIQMTQSPSTLSASVGDRVTITCRASQSIGSWLAWYQQKPGKAPKLLIYKASSLESGVPSRFSGSGSGTEFTLTISSLQPDDFATYYCQQSGPYPWTFGGGTKVEIK . Reported Kd?
Result: 6.47
